Below, each entry is listed with its recorded % of failures.
# PROTOCOL DETAILS: rota rod test (neurotoxicity, coordination of movements on a turning rod)
# CONDITION PARAMETERS: 15 min. after administration of 500 mg/kg by oral route
Lab book: enter the figure in %, no units written.

Past entries and their recorded results:
> print(dat)
                                   compound   readout.name  units.of.measure  observed.result
1  CCCC(CCC)CCCC(N)=O [5-n-propyl-octanamide, 5-n-Propyl-octanamide]  % of failures                 %                0
2                 CCCC(CCC)CC(=O)[O-].[Na+]  % of failures                 %               30
3                        CCCC(CCC)CCCC(=O)O  % of failures                 %               20

// query Using the record for CCCC(CCC)CC(N)=O [3-n-propyl-hexanamide, 3-n-Propyl-hexanamide] , state its measured % of failures.
// result 30

FYI, the data here is from patent US4246282A.
